Molecular target: β-secretase (BACE) (Homo sapiens, UniProt P56817)
Construct: purchased Panvera
Sequence (P56817 46-501): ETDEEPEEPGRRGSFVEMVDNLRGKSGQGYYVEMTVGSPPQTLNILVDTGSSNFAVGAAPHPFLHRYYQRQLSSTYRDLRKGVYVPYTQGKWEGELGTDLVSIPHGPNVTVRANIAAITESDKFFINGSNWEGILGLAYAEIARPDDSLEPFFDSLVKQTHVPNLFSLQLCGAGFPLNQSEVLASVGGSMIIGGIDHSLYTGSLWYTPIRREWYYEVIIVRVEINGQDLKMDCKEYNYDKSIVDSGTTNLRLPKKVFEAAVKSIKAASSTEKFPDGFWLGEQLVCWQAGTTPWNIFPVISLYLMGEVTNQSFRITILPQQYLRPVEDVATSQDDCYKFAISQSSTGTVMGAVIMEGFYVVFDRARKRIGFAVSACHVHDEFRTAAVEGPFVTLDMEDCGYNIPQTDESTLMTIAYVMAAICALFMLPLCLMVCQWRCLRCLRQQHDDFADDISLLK
Assay: BACE % Inhibition Assay (Example 161), (Aedens)-[…]-(Dabcyl K-amide) substrate
Type: biochemical
Settings: 0.3 μM test compound; % error ±10%
REPORTED METRIC: % Inhibition (%)
Please state the figure in %; there is no need to write the unit.

{"columns": ["COMPOUND", "EXPERIMENTAL VALUE"],
 "data": [
  ["NC1=Nc2ccc(Oc3ccccc3)cc2CN1C(CNC(=O)C1CCCCC1)c1ccccc1 (stereo not shown)", 50]
]}

Test item CCCC(CNC(=O)C1CCCCC1)N1Cc2cc(Oc3ccccc3)ccc2N=C1N (stereo not shown) ; β-secretase (BACE) (Homo sapiens, UniProt P56817); reported % Inhibition was 81

The compound NC1=Nc2ccc(Oc3ccccc3)cc2CN1C(CCNC(=O)C1CCCCC1)C1CCCCC1 (stereo not shown) , tested on β-secretase (BACE) (Homo sapiens, UniProt P56817), showed % Inhibition of 35

Item: CCCC(CNC(=O)OC(C)(C)C)N1Cc2cc(Oc3ccccc3)ccc2N=C1N (stereo not shown) | System: β-secretase (BACE) (Homo sapiens, UniProt P56817) | % Inhibition: 32
